system: L. monocytogenes; assay type: cell-based, Listeria monocytogenes; settings: β-lactam dependent growth inhibition
value_type: effective dose against L. monocytogenes (µM)
Quick note: give the figure in µM, leave out the unit.

Lab note: need effective dose against L. monocytogenes with L. monocytogenes for entry CCn1c(-c2nonc2N)nc2c(C#CC(C)(C)O)nc(OCCNC)cc21 [GSK949675A] , please look it up.
10

Lab note: need effective dose against L. monocytogenes with L. monocytogenes for entry CCn1c(-c2nonc2N)nc2c(C#CC(C)(C)O)ncc(OC[C@H]3CCCNC3)c21 [GSK690693] , please look it up.
10

Lab note: need effective dose against L. monocytogenes with L. monocytogenes for entry Cc1ncc(-c2ccnc(Nc3ccc(S(C)(=O)=O)cc3)n2)n1C(C)C [AZD5438] , please look it up.
10

Lab note: need effective dose against L. monocytogenes with L. monocytogenes for entry CCn1c(-c2nonc2N)nc2c(C#CC(C)(C)O)nc(OC[C@@H](N)c3ccccc3)cc21 [GSK938890A] , please look it up.
10

###

biological target: PrkA (PASTA kinase of L. monocytogenes; kinase domain, GST fusion) (Listeria monocytogenes); assay: biochemical
Sequence (A0A0H3GI69 entry or part of it): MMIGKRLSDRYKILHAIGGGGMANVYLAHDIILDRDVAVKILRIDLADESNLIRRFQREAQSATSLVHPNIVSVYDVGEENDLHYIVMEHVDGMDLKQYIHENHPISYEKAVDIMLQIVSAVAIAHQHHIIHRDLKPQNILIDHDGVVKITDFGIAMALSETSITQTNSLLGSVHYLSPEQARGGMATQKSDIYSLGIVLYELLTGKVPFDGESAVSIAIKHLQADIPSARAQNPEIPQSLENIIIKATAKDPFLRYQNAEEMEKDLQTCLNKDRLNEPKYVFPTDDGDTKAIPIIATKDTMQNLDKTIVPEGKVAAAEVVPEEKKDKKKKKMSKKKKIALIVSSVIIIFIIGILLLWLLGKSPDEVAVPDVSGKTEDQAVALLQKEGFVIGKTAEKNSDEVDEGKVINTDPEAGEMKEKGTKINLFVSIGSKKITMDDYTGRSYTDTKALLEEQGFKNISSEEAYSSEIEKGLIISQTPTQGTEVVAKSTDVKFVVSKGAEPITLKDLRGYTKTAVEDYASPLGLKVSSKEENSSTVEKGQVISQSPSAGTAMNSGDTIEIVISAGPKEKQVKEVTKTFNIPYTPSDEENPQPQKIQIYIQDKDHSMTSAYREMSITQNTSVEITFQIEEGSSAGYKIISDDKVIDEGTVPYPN
value_type: pIC50
# pIC50: negative log10 of molar concentration; output just the value

Query: pIC50; subject: CCn1c(-c2nonc2N)nc2c(C#CC(C)(C)O)ncc(OC[C@H]3CCCNC3)c21
5.92
